- Assayed system: T1, CCR1 (h), C-C chemokine receptor type 1 (human (printed as (h)), UniProt P32246 1-355)
- T1 sequence (looked up): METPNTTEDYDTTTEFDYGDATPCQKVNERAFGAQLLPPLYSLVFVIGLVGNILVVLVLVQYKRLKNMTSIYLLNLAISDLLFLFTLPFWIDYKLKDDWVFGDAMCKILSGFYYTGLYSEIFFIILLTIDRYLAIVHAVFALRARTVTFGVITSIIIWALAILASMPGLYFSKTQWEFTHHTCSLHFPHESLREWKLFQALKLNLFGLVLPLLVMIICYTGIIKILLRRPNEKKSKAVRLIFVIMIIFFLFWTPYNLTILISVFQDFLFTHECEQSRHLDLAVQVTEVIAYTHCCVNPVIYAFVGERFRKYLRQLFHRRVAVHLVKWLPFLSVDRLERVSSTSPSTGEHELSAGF
- Measurement description: Cerep ExpresSProfile radioligand competition binding, reference compound (agonist radioligand)
Measure: pKi
Give bare numbers, as −log10 of the molar value.

Recall and state the measured pKi for MIP-1alpha (ligand, UniProt P10147 24-92, looked up) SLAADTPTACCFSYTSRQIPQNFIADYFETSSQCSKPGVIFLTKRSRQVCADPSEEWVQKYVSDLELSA . 10.39
